Target desc: Amp-C (Escherichia coli)
Construct: made in house; host or cells: E. coli (DH5 and BL21(DE3) named; pET-28a)
Sequence (P00811 20-377): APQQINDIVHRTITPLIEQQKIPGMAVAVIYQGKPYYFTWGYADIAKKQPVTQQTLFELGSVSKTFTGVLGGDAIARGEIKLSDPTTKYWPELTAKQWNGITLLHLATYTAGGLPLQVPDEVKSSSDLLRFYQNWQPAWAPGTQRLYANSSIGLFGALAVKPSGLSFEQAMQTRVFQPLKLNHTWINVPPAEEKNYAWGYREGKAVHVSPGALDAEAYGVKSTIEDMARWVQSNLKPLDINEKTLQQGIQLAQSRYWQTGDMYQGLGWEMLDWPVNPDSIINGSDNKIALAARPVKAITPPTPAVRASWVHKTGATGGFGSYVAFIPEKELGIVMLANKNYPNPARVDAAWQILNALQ
Method description: Steady-state kinetics of antibiotic hydrolysis with inhibitor
Type: biochemical
Conditions: meropenem, inhibitor concentration as per IC50
Measurement type: Km or Ki (μΜ)
Respond numerically; units are μΜ and should not be typed.

Record O=C(O)c1ccccc1C(=O)N1CCN(c2nc(-c3ccccc3)ns2)CC1 . Reported Km or Ki: 553

Record O=C(CN1C(=O)c2ccccc2S1(=O)=O)c1ccc(O)c(O)c1 . Reported Km or Ki: 553.8

Record O=C(c1ccccc1)C1CCN(C(=O)CN2C(=O)c3ccccc3C2=O)CC1 . Reported Km or Ki: 794
